Assay: Mouse PK studies after oral and IV dosing
Assay type: in vivo
Details: in vivo, iv, 1 mg/kg, IV, dose 1 mg/kg, read-out: IV T1/2 (converted)
Known half-life of a selection of molecules
Unit h implied. Number only.

Example entries and their recorded answers appear below.
C[C@H]1CC2(CCN(c3ccc(C(=O)N4CCN(CC5CCN(c6cc7c(cc6F)C(=O)N(C6CCC(=O)NC6=O)C7=O)CC5)CC4)nn3)CC2)CN1c1ccc(C#N)c(Cl)c1 (some centres unmarked)	9.5
C[C@H]1CC2(CCN(c3ccc(C(=O)N4CCN(C5CN(c6ccc7c(c6)C(=O)N(C6CCC(=O)NC6=O)C7)C5)CC4)cc3)CC2)CN1c1ccc(C#N)c(Cl)c1 (some centres unmarked)	7.5
C[C@H]1CC2(CCN(c3ccc(C(=O)N4CCN(C5CN(c6ccc7c(c6)CN(C6CCC(=O)NC6=O)C7=O)C5)CC4)cc3)CC2)CN1c1ccc(C#N)c(Cl)c1 (some centres unmarked)	8.8
C[C@H]1CC2(CCN(c3ccc(C(=O)N4CCN(CC5CN(c6ccc7c(c6)C(=O)N(C6CCC(=O)NC6=O)C7=O)C5)CC4)cc3F)CC2)CN1c1ccc(C#N)c(Cl)c1 (some centres unmarked)	8.9

With those in mind, consider the next molecule.
Entry under review: C[C@H]1CC2(CCN(c3ccc(C(=O)N4CCN(CC5CN(c6cc7c(cc6F)C(=O)N(C6CCC(=O)NC6=O)C7=O)C5)CC4)nn3)CC2)CN1c1ccc(C#N)c(Cl)c1 (some centres unmarked) . Reported half-life?
9.8

----------
Test: Mouse PK studies after oral and IV dosing
Format: in vivo
Conditions: in vivo, po, 5 mg/kg, PO, dose 5 mg/kg, read-out: PO AUC(0 − t)
observed property: AUC(0-t) (ng·h/mL)
Unit ng·h/mL implied. Number only.

Entry under review: C[C@H]1CC2(CCN(c3ccc(C(=O)N4CCC(N5Cc6cc7c(cc6C5)C(=O)N(C5CCC(=O)NC5=O)C7=O)CC4)cc3)CC2)CN1c1ccc(C#N)c(Cl)c1 (stereo partly shown) . Reported AUC(0-t)?
85200

----------
Known F of a selection of compounds
Assay: Mouse PK studies after oral and IV dosing
Assay type: in vivo
Conditions: PO 3 mg/kg vs IV 1 mg/kg
Unit % implied. Number only.

C[C@H]1CC2(CCN(c3ccc(C(=O)N4CCC(CN5CCN(c6ccc7c(c6)C(=O)N(C6CCC(=O)NC6=O)C7=O)CC5)CC4)nn3)CC2)CN1c1ccc(C#N)c(Cl)c1 (stereo partly shown) [Cpd. No. 489]	37
C[C@H]1CC2(CCN(c3cnc(C(=O)N4CCN(CC5CCN(c6ccc7c(c6)C(=O)N(C6CCC(=O)NC6=O)C7=O)CC5)CC4)cn3)CC2)CN1c1ccc(C#N)c(Cl)c1 (stereo partly shown) [Cpd. No. 494]	9

Entry under review: C[C@H]1CC2(CCN(c3ccc(C(=O)N4CCN(C5CN(c6ccc7c(c6)C(=O)N(C6CCC(=O)NC6=O)C7=O)C5)CC4)cc3F)CC2)CN1c1ccc(C#N)c(Cl)c1 (stereo partly shown) [Cpd. No. 510] . Reported F?
51

Entry under review: C[C@H]1CC2(CCN(c3ccc(C(=O)N4CCN(CC5CN(c6ccc7c(c6)C(=O)N(C6CCC(=O)NC6=O)C7=O)C5)CC4)c(F)c3)CC2)CN1c1ccc(C#N)c(Cl)c1 (stereo partly shown) [Cpd. No. 529] . Reported F?
45

Entry under review: C[C@H]1CC2(CCN(c3cnc(C(=O)N4CCC(N5CCN(c6ccc7c(c6)C(=O)N(C6CCC(=O)NC6=O)C7=O)CC5)CC4)cn3)CC2)CN1c1ccc(C#N)c(Cl)c1 (stereo partly shown) [Cpd. No. 497] . Reported F?
30

Entry under review: C[C@H]1CC2(CCN(c3cnc(C(=O)N4CCC(N5CCN(c6cc7c(cc6F)C(=O)N(C6CCC(=O)NC6=O)C7=O)CC5)CC4)cn3)CC2)CN1c1ccc(C#N)c(Cl)c1 (stereo partly shown) [Cpd. No. 498] . Reported F?
45

Entry under review: C[C@H]1CC2(CCN(c3ccc(C(=O)N4CC[C@@H](CN5CCN(c6ccc7c(c6)C(=O)N(C6CCC(=O)NC6=O)C7=O)CC5)C4)cc3)CC2)CN1c1ccc(C#N)c(Cl)c1 (stereo partly shown) [compound 448] . Reported F?
26
